test system: mantle cell lymphoma cell lines (Mino and Z-138); assay: Thymidine incorporation proliferation assay in mantle cell lymphoma cell lines; assay type: cell-based; settings: further analyzed at concentrations below 1 μM; read-out: IC50, cell growth inhibition
READOUT NAME: IC50

N#Cc1ccc(/C=C2\CSC/C(=C\c3ccc(C#N)cc3)C2=O)cc1 [Turmerax 9] ... 200 to 800 nM
N#Cc1cccc(/C=C2\CSC/C(=C\c3cccc(C#N)c3)C2=O)c1 [Turmerax 1] ... 100 to 200 nM

# ---- query compound ----
Complete the entry with IC50 for O=C1/C(=C/c2ccc(Cl)c([N+](=O)[O-])c2)CSC/C1=C\c1ccc(Cl)c([N+](=O)[O-])c1 [Turmerax 5]
100 to 200 nM

* * *

Tested on: mantle cell lymphoma cell lines (Mino and Z-138)
Experiment: Thymidine incorporation proliferation assay in mantle cell lymphoma cell lines
Format: cell-based
Conditions: Mino and Z-138; doses 0-25 μM; thymidine incorporation; read-out: IC50, cell growth inhibition
Description: FIG. 1. Effect of Tumeric Derivatives in MCL cells. Six TMX analogs were screened in two mantle cell lymphoma cell lines (Mino and Z-138). These assays were performed by treating cells with increasing doses of TMX (0-25 μM) and analyzed by thymidine incorporation (proliferation assay). FIG. 2. Effect of Turmerax Compounds in MCLs. […] These assays were performed by treating cells with increasing doses of TMX (0-25 μM) and analyzed by thymidine incorporation (proliferation assay). […]
READOUT NAME: IC50

O=C1/C(=C/c2ccc(Cl)c([N+](=O)[O-])c2)CSC/C1=C\c1ccc(Cl)c([N+](=O)[O-])c1 ... < 1 µM
N#Cc1ccc(/C=C2\CSC/C(=C\c3ccc(C#N)cc3)C2=O)cc1 ... < 1 µM
O=C1/C(=C/c2ccc(Cl)c(Cl)c2)CSC/C1=C\c1ccc(Cl)c(Cl)c1 ... 3 to 10 µM

Output reported IC50 of the compound "COc1ccc(/C=C2\CSC/C(=C\c3ccc(OC)c(OC)c3OC)C2=O)c(OC)c1OC" on mantle cell lymphoma cell lines (Mino and Z-138).
> 25 µM

Output reported IC50 of the compound "O=C1/C(=C/c2ccc(Br)cc2)CSC/C1=C\c1ccc(Br)cc1" on mantle cell lymphoma cell lines (Mino and Z-138).
3 to 10 µM

Output reported IC50 of the compound "N#Cc1cccc(/C=C2\CSC/C(=C\c3cccc(C#N)c3)C2=O)c1" on mantle cell lymphoma cell lines (Mino and Z-138).
< 1 µM

Output reported IC50 of the compound "CCOC(=O)c1ccc(/C=C2\CSC/C(=C\c3ccc(C(=O)OCC)cc3)C2=O)cc1" on mantle cell lymphoma cell lines (Mino and Z-138).
3 to 10 µM

Output reported IC50 of the compound "COc1ccc(/C=C2\CSC/C(=C\c3ccc(OC)c(C)c3C)C2=O)c(C)c1C" on mantle cell lymphoma cell lines (Mino and Z-138).
> 25 µM

Output reported IC50 of the compound "O=C1/C(=C/c2c(F)ccc(Cl)c2F)CSC/C1=C\c1c(F)ccc(Cl)c1F" on mantle cell lymphoma cell lines (Mino and Z-138).
> 25 µM
